FYI, the data here is from PubChem BioAssay AID1963874.

System: 253994-281-T-J1-PDC KRAS-mutant spheroids with HUVEC/MSC, viability;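 also: spheroids exposed to agents for seven days before readout; percent of DMSO vehicle control viability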
TEST: Anticancer human tumor 253994-281-T-J1-PDC patient-derived colorectal carcinoma cell line growth inhibition [KRAS2]
RUN_CONDITIONS: compound 0.1 µM; active compounds read low
READOUT: viability, T/C

[in] Under 253994-281-T-J1-PDC KRAS-mutant spheroids with HUVEC/MSC, viability: viability, T/C value of "CC(C)n1nc(-c2ccc3oc(N)nc3c2)c2c(N)ncnc21" ?
[out] 58.8% [middle of 5 runs]

[in] Under 253994-281-T-J1-PDC KRAS-mutant spheroids with HUVEC/MSC, viability: viability, T/C value of "CC1(C)CCC(CN2CCN(c3ccc(C(=O)NS(=O)(=O)c4ccc(NCC5CCOCC5)c([N+](=O)[O-])c4)c(Oc4cnc5[nH]ccc5c4)c3)CC2)=C(c2ccc(Cl)cc2)C1" ?
[out] 97.9% [middle of 5 runs]

[in] Under 253994-281-T-J1-PDC KRAS-mutant spheroids with HUVEC/MSC, viability: viability, T/C value of "O=C(c1cc(Cc2n[nH]c(=O)c3ccccc23)ccc1F)N1CCN(C(=O)C2CC2)CC1" ?
[out] 93.8% [middle of 5 runs]

[in] Under 253994-281-T-J1-PDC KRAS-mutant spheroids with HUVEC/MSC, viability: viability, T/C value of "COc1cc(OC)cc(N(CCNC(C)C)c2ccc3ncc(-c4cnn(C)c4)nc3c2)c1" ?
[out] 92% [middle of 5 runs]

[in] Under 253994-281-T-J1-PDC KRAS-mutant spheroids with HUVEC/MSC, viability: viability, T/C value of "Cn1nccc1Nc1nccc(-c2cc3c(s2)C(C)(C)N(CCN2CCOCC2)C3=O)n1" ?
[out] 96.2% [middle of 5 runs]

[in] Under 253994-281-T-J1-PDC KRAS-mutant spheroids with HUVEC/MSC, viability: viability, T/C value of CC(=O)OC12COC1CC(O)C1(C)C(=O)C(O)C3=C(C)C(OC(=O)C(O)C(NC(=O)OC(C)(C)C)c4ccccc4)CC(O)(C(OC(=O)c4ccccc4)C21)C3(C)C (stereo not given) ?
[out] 32.9% [middle of 5 runs]

[in] Under 253994-281-T-J1-PDC KRAS-mutant spheroids with HUVEC/MSC, viability: viability, T/C value of "COc1cc2nccc(Oc3ccc(NC(=O)C4(C(=O)Nc5ccc(F)cc5)CC4)cc3)c2cc1OC" ?
[out] 108% [middle of 5 runs]

[in] Under 253994-281-T-J1-PDC KRAS-mutant spheroids with HUVEC/MSC, viability: viability, T/C value of CCNC(=O)CC1N=C(c2ccc(Cl)cc2)c2cc(OC)ccc2-n2c(C)nnc21 (stereo not given) ?
[out] 103% [middle of 5 runs]

[in] Under 253994-281-T-J1-PDC KRAS-mutant spheroids with HUVEC/MSC, viability: viability, T/C value of "CCN1CCN(Cc2ccc(Nc3ncc(F)c(-c4cc(F)c5nc(C)n(C(C)C)c5c4)n3)nc2)CC1" ?
[out] 84.2% [middle of 5 runs]

[in] Under 253994-281-T-J1-PDC KRAS-mutant spheroids with HUVEC/MSC, viability: viability, T/C value of "CN(C)C/C=C/C(=O)Nc1cc2c(Nc3ccc(F)c(Cl)c3)ncnc2cc1O[C@H]1CCOC1" ?
[out] 71.7% [middle of 5 runs]
